Assay Target: Bromodomain-containing protein 3 (Homo sapiens)
Sequence (Q15059 whole entry): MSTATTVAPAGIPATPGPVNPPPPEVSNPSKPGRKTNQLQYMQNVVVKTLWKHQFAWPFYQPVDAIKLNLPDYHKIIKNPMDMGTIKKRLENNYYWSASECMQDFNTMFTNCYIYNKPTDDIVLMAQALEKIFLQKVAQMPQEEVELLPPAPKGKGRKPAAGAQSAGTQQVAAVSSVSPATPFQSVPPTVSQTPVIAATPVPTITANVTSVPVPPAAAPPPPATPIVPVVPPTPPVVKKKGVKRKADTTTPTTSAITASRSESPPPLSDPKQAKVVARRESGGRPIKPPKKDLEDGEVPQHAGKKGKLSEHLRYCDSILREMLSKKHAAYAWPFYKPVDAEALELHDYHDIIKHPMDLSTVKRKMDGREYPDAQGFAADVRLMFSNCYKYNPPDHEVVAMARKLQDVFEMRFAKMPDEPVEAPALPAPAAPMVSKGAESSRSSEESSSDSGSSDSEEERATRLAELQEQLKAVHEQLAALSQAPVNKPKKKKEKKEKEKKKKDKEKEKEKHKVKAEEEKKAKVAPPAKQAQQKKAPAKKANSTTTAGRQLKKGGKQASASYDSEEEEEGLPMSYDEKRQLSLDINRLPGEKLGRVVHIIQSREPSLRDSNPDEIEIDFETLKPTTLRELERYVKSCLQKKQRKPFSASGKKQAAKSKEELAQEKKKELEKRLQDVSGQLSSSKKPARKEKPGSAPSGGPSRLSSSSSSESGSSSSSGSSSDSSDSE
Protocol Notes: Binding affinity BRD3 (unknown origin) assessed as dissociation constant
Measured Metric: pKd
Kindly note that pKd refers to -log10 of the concentration in mol/L and answer with the value alone.

Just so you know, measured pKd for Cc1cc(-c2ccc3nc(C4CCOCC4)n(CCOC(F)(F)F)c3c2)cn(C)c1=O came out at 8.46

* * *

Assay Target: Bromodomain-containing protein 2 (Homo sapiens, UniProt P25440)
Sequence (P25440 whole entry): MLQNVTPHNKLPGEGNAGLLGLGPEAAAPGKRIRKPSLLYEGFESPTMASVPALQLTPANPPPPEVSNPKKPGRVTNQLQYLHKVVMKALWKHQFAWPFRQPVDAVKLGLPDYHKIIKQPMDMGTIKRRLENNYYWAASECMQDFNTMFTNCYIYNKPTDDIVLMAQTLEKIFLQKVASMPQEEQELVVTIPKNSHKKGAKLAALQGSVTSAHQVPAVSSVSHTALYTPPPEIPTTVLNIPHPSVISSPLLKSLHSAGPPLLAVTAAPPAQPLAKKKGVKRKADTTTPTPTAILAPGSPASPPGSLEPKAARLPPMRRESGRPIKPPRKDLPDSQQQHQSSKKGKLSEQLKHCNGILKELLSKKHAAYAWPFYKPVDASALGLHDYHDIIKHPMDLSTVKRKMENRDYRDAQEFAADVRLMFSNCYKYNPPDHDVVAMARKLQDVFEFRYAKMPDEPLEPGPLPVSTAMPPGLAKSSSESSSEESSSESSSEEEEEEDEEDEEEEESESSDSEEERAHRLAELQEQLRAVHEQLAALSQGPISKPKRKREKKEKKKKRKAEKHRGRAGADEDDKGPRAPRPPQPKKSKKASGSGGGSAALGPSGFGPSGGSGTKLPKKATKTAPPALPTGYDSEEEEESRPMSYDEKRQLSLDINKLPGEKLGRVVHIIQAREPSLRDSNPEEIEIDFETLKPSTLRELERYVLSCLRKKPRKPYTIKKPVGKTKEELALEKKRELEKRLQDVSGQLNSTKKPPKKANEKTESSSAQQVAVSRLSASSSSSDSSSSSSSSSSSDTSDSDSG
Protocol Notes: Binding affinity BRD2 (unknown origin) assessed as dissociation constant
Measured Metric: pKd
Would you please state pKd, meaning minus log10 of the concentration in mol/L, as a bare number?

Looking up Cc1cc(-c2ccc3nc(C4CCOCC4)n(CCOC(F)(F)F)c3c2)cn(C)c1=O , I found its pKd recorded as 8.05
